target_entity: platelet-derived growth factor (PDGF) (Homo sapiens) (UniProt P01127)
Sequence (P01127 82-190): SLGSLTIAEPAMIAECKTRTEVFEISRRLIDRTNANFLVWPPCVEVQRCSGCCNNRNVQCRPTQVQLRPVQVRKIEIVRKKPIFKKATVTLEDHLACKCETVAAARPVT
experimental_protocol: filter
test_parameters: 5-BrdU replaces T; apparent photocrosslink KD; plateau 67%; rate 0.43
quantity_kind: Kd
Remember to follow the number with its unit.

The recorded Kd for entry ATATATATGGGAGGACGATGCGGCAGCACCGAGGTACCCAACAGGGATCCGCCCAGACGACGAGCGGGAAAAAAAA [PDGF pool 008 clone 26] equals 1.8 nM

* * *

target_entity: platelet-derived growth factor (PDGF) (Homo sapiens) (UniProt P01127)
experimental_protocol: filter
test_parameters: 5-BrdU replaces T; apparent photocrosslink KD; plateau 52%; rate 0.25
quantity_kind: pKd
Numbers only, as −log10 of the molar value.

The recorded pKd for entry ATATATATGGGAGGACGATGCGGGCGGAAGAGGCAGGGTACCACGGCAGAGGTCAGACGACGAGCGGGAAAAAAAA [PDGF pool 4 clone 24] equals 8.70
